Taken from the RNAGym collection of RNA variant scans (doi:10.7554/elife.90254).

Form field: self-cleavage (one value per entry).
B1: LINE1-mini (parent)
chain: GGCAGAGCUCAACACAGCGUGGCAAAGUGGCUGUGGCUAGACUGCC

- Variants of: B1
- Test Method Notes: self-cleavage, relative activity (ratio to wild type); higher = more cleavage; in vitro, sequencing; the parent is a self-cleaving ribozyme

{"columns": ["Variant Spec", "self-cleavage"],
 "data": [
  ["G1C A14C", 0.02],
  ["G5A U28A", 0.12],
  ["A4U G21U", 0.35],
  ["A11C U28G", 0.05],
  ["U28C C31A", 0.87],
  ["C31U C46G", 0.08],
  ["A4U C31G", 0.05],
  ["G35A A41C", 0.04],
  ["A6C A24G", 0.49],
  ["G29A C37A", 0.1],
  ["G2A G7A", 0.86],
  ["G5U G36C", 0.04],
  ["G1A A39U", 1.46],
  ["G7C G17A", 0.07],
  ["A24U U34G", 0.24],
  ["G5A C31A", 0.08],
  ["C18A G19U", 0.31],
  ["A6U A16G", 0.14],
  ["G17U U28A", 0.17],
  ["A16G G29C", 0.4],
  ["A6C G33C", 0.07],
  ["A4U C45U", 0.16]
]}
